# subjectOfTest: Recombinant human HDAC3/SMRT heterodimer (Homo sapiens)
# Construct: FLAG (C); made in house
# Sequence (O15379 whole entry): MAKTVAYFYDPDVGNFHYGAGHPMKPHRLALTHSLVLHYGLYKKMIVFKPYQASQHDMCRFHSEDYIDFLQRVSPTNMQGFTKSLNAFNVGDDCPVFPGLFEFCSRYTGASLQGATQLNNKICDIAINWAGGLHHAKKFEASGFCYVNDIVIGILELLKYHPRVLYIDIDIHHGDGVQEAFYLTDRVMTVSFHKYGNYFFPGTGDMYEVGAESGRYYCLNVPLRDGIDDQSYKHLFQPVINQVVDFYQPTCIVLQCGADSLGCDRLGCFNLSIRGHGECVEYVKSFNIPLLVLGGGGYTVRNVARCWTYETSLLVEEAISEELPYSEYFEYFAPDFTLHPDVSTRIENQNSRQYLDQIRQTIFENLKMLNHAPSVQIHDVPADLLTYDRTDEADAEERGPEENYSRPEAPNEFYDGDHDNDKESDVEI
# Sequence (Q9Y618 1-899 partner limits assumed): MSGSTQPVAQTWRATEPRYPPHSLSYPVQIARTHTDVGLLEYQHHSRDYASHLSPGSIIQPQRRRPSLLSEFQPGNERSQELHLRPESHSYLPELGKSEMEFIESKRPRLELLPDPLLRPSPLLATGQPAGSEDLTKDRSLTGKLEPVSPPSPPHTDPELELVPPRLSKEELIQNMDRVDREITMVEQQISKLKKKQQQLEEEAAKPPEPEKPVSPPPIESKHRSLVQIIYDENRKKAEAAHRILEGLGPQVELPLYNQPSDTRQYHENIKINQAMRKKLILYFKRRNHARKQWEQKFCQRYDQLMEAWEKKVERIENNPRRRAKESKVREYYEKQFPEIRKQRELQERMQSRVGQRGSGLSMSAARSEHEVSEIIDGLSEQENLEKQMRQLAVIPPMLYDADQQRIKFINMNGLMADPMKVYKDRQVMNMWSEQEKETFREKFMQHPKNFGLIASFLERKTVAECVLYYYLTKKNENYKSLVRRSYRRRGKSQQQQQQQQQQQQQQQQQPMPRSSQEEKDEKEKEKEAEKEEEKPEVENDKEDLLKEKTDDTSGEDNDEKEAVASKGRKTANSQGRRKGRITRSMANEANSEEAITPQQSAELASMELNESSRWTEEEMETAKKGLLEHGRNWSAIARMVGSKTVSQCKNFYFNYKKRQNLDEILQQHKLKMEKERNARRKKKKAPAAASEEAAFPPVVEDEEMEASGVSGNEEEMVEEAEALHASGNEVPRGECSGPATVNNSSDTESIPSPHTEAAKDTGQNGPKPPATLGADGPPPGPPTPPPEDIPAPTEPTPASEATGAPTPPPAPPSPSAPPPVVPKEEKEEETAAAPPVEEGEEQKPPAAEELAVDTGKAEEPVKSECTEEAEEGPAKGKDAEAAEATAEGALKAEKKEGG
# measurementProtocol: Human HDAC enzyme inhibitor Fluor-de-Lys assay, HDAC3/SMRT
# Type: biochemical
readoutLabel: IC50 (nM)
Kindly answer with a numeric value in nM, unit omitted.

# compound CCC(=O)CCCCC[C@H](NC(=O)[C@H]1CC12CCN(C)CC2)c1ncc(-c2ccc3c(ccc(=O)n3C)c2)o1 [Compound 109] ; its IC50 = 2.98

# compound CCC(=O)CCCCC[C@H](NC(=O)[C@H]1CC12CCN(C)CC2)c1ncc(-c2ccc3nc(C)cc(Cl)c3c2)[nH]1 [Compound 174] ; its IC50 = 0.43

# compound CCC(=O)CCCCC[C@H](NC(=O)[C@H]1CC12CCN(CC)CC2)c1ncc(-c2ccc(-c3cnc(C4CC4)cn3)cc2)o1 [Compound 129] ; its IC50 = 14.2

# compound CCC(=O)CCCCC[C@H](NC(=O)C1CN(C)C1)c1[nH]c(-c2ccc(F)cc2)nc1Br [Compound 65] ; its IC50 = 20.6

# compound CCC(=O)CCCCC[C@H](NC(=O)[C@H]1CC12CCN(C)CC2)c1[nH]c(-c2ccc(F)cc2)nc1Cl [Compound 91] ; its IC50 = 3.26

# compound CCC(=O)CCCCC[C@H](NC(=O)[C@H]1CC12CCN(C)CC2)c1ncc(-c2cc3ccc(=O)n(C)c3cc2OC)o1 [Compound 198] ; its IC50 = 0.65

Entry source: patent US12590099B2
